Biological target: human platelet PLA2 (Homo sapiens, UniProt P14555)
Sequence (P14555 21-144): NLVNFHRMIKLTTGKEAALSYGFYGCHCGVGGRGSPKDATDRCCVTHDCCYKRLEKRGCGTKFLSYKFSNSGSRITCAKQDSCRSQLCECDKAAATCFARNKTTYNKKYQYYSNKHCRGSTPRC
Assay: Inhibition of cell free human platelet PLA2 (hydrolysis of [3H]-AA labelled E. coli phospholipids)
Assay type: biochemical
Details: Table 1; compounds of the invention; human platelet PLA2, pH 7.4, 37° C., 30 minutes
Structures can show the parent of a compound that is named as a salt.
PROPERTY_LABEL: IC50 (µM)

Study these solved cases before continuing.
OC[C@H](Cc1ccc(O)cc1)NCCCCCCCCCCc1ccccc1 [Example 5, hydrochloride] | 48
Cl.OC[C@@H]1CCCN1CCCCCCCCCCCOc1ccccc1 [Example 3a, hydrochloride] | 17
CCCC[C@@H](CO)NCCCCCCCCc1ccccc1.Cl [Example 2b, hydrochloride] | 45

P. CCOC(CNCCCCCCCCCCCOc1ccccc1)OCC.Cl [Example 4, hydrochloride]
Q. CCCCCCCCCCCCCCCCCCNC(CO)CCCC.Cl (centres unmarked) [Example 1, hydrochloride]
R. CCCCC(CO)NCCCCCCCCCCc1ccccc1.Cl (centres unmarked) [Example 2a, hydrochloride]
Task: Order by IC50, ascending. To answer, arrange all of the labels according to the requested order.
Result: Q, R, P
(Q: 12 µM, R: 19 µM, P: 33 µM)

Data provenance: patent US4845292A
